# assay.protocol: Metabolic stability in po dosed rat assessed as drug recovery after 96 hrs
# Assay type: ADME, organism-based
# condition.label: in vivo
attribute.measured: dose excreted at 96 h (%)
Lab book: enter the figure in %, no units written.

The value of dose excreted at 96 h measured for the compound `CS(=O)(=O)c1ccc(-c2cn(CC(F)(F)F)nc2[C@@H]2CCC(Cl)(Cl)C[C@H]2C(=O)NC2(C#N)CC2)cc1` turned out to be 92

###

In this section, each of the molecules is paired with its reported Selectivity ratio.
# assay.protocol: Selectivity for rabbit cathepsin K over human cathepsin B
Give the value as a plain number.

1. CS(=O)(=O)c1ccc(-c2c[nH]nc2[C@@H]2CCC(F)(F)C[C@H]2C(=O)NC2(C#N)CC2)cc1    2900

The value of Selectivity ratio measured for the molecule CSc1ccc(-c2cn(C)nc2[C@@H]2CCC(F)(F)C[C@H]2C(=O)NCC#N)cc1 (racemic) turned out to be 9500

The value of Selectivity ratio measured for the molecule `Cn1cc(-c2ccc(S(C)(=O)=O)cc2)c([C@@H]2CCC(F)(F)C[C@H]2C(=O)NC2(C#N)CC2)n1` turned out to be 4400
